All figures here come from ChEMBL document CHEMBL1770054.

- test_summary: Inhibition of xylose isomerase
measurement_name: pKi
The scale used: pKi is minus the common logarithm of the concentration in molar units.

Query: pKi; subject: `O=C(NO)[C@H](O)[C@H](O)CO` 7.00

* * *

- system_name: Arabinose 5-phosphate isomerase KdsD (Francisella tularensis subsp. tularensis (strain SCHU S4 / Schu 4))
- Sequence (Q5NGP7 whole entry): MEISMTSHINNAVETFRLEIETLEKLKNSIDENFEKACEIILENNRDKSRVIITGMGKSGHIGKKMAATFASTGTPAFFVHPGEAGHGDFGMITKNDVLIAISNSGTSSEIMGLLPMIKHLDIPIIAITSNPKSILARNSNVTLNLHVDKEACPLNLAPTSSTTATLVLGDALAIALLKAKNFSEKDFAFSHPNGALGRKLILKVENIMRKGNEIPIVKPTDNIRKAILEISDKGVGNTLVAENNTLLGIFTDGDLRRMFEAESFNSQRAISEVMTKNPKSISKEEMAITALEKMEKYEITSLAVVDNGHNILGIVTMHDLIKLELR
Consider the following molecules; for each one, report its pIC50.
The scale used: pIC50 is minus the common logarithm of the concentration in molar units.

Query: pIC50; subject: `NC(=O)[C@H](O)[C@H](O)COP(=O)(O)O` 5.00

Query: pIC50; subject: `CC1(C)O[C@H](COP(=O)(O)O)[C@H](C(=O)NO)O1` 2.52

Query: pIC50; subject: `CC(=O)O[C@H](COP(=O)(O)O)[C@@H](OC(C)=O)C(=O)NO` 5.15

Query: pIC50; subject: `O=C(NO)[C@H](O)[C@H](O)COP(=O)(O)O` 4.46

* * *

- test_summary: Inhibition of Escherichia coli arabinose phosphate isomerase
measurement_name: IC50 (µM)
Hi! Could you send only the number? It should be in µM, unit omitted.

Query: IC50; subject: `O=C(O)[C@H](O)[C@H](O)COP(=O)(O)O` 220

* * *

- system_name: Triosephosphate isomerase (Homo sapiens)
- Sequence (P60174 whole entry): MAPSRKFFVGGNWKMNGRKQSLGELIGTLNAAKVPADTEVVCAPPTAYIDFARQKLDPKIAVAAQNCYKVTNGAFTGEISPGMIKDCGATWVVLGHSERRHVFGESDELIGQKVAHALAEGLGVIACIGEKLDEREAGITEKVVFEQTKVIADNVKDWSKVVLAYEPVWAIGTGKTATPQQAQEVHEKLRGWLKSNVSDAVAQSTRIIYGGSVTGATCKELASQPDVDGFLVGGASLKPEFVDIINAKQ
- test_summary: Inhibition of Triosephosphate isomerase
measurement_name: Ki (µM)
Hi! Could you send only the number? It should be in µM, unit omitted.

Recall the recorded Ki for O=C(COP(=O)(O)O)NO [PHOSPHOGLYCOLOHYDROXAMATE] with Triosephosphate isomerase (Homo sapiens) and state it. 4

* * *

- system_name: UniProt:P9WKD7
- Sequence (P9WKD7 whole entry): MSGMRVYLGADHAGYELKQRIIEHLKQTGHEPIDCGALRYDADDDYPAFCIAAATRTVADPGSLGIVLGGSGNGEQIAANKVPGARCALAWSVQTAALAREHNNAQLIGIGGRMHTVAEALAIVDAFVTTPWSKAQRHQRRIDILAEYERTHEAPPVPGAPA
measurement_name: Ki

Query: Ki; subject: `NC(=O)[C@H](O)[C@H](O)COP(=O)(O)O` > 30 mM

* * *

- system_name: Glucose-6-phosphate isomerase (Oryctolagus cuniculus, UniProt Q9N1E2)
measurement_name: pKi
The scale used: pKi is minus the common logarithm of the concentration in molar units.

Recall the recorded pKi for `O=C(NO)[C@@H](O)[C@H](O)[C@H](O)COP(=O)(O)O` with Glucose-6-phosphate isomerase (Oryctolagus cuniculus, UniProt Q9N1E2) and state it. 7.00
